- System: Escherichia coli TOP10
- assay info: shrunken log2 fold change of peptide-encoding DNA abundance (4.5 h post-induction vs induction); higher = less antimicrobial activity (less host growth inhibition)
- condition details: time post-induction: 4.5 h; library: site-saturation at positions 5, 18, 19, 20
parameter: shrunken log2 fold change

RRIRNRPPRLPRPRPRPKIDPRP | -0.626
RRIRGRPPRLPRPRPRPCCCPRP | 0.946
RRIRRRPPRLPRPRPRPNSGPRP | 0.279
RRIRYRPPRLPRPRPRPYADPRP | -0.136
RRIRDRPPRLPRPRPRPYFFPRP | -0.287
RRIRDRPPRLPRPRPRPCYHPRP | -0.019
RRIRPRPPRLPRPRPRPNCCPRP | 0.187
RRIRPRPPRLPRPRPRPMFWPRP | -0.0858

----------
- System: Escherichia coli TOP10
- assay info: shrunken log2 fold change of peptide-encoding DNA abundance (4.5 h post-induction vs induction); higher = less antimicrobial activity (less host growth inhibition)
- condition details: time post-induction: 4.5 h; library: site-saturation at positions 5, 18, 19, 20
Lab note: compare shrunken log2 fold change against -0.05. Equal or greater, write condition met. Smaller, write condition not met.

RRIRCRPPRLPRPRPRPYGLPRP | condition met
RRIRTRPPRLPRPRPRPCEFPRP | condition not met
RRIRGRPPRLPRPRPRPNVYPRP | condition met
RRIRMRPPRLPRPRPRPHYAPRP | condition not met
RRIRSRPPRLPRPRPRPIFFPRP | condition met
RRIRFRPPRLPRPRPRPAMRPRP | condition met
RRIRGRPPRLPRPRPRPNKGPRP | condition met
RRIRGRPPRLPRPRPRPILFPRP | condition met

----------
- Test system: Escherichia coli TOP10
- assay info: shrunken log2 fold change of peptide-encoding DNA abundance (4.5 h post-induction vs induction); higher = less antimicrobial activity (less host growth inhibition)
- condition details: time post-induction: 4.5 h; library: site-saturation at positions 5, 18, 19, 20
parameter: shrunken log2 fold change

RRIRRRPPRLPRPRPRPYTNPRP | -0.95
RRIRKRPPRLPRPRPRPWMSPRP | -0.0718
RRIRPRPPRLPRPRPRPTSAPRP | 0.156
RRIRFRPPRLPRPRPRPKWCPRP | -0.183
RRIRGRPPRLPRPRPRPYIFPRP | -0.135
RRIRRRPPRLPRPRPRPCNEPRP | -0.0323
RRIRHRPPRLPRPRPRPCWNPRP | -0.151
RRIRNRPPRLPRPRPRPPDLPRP | 0.101

----------
- Test system: Escherichia coli TOP10
- assay info: shrunken log2 fold change of peptide-encoding DNA abundance (4.5 h post-induction vs induction); higher = less antimicrobial activity (less host growth inhibition)
- condition details: time post-induction: 4.5 h; library: site-saturation at positions 5, 18, 19, 20
parameter: shrunken log2 fold change

RRIRTRPPRLPRPRPRPMKLPRP | -0.192
RRIRMRPPRLPRPRPRPKRWPRP | 1.51
RRIRCRPPRLPRPRPRPQNEPRP | -0.389
RRIRGRPPRLPRPRPRPCYHPRP | -0.345
RRIRNRPPRLPRPRPRPHCSPRP | -0.095
RRIRARPPRLPRPRPRPIMYPRP | -0.161
RRIRERPPRLPRPRPRPSEYPRP | -0.27
RRIRPRPPRLPRPRPRPCVRPRP | 0.14
RRIRWRPPRLPRPRPRPSSCPRP | -0.0941
RRIRLRPPRLPRPRPRPAPLPRP | 0.273
RRIRIRPPRLPRPRPRPVPCPRP | -0.00376
RRIRYRPPRLPRPRPRPASTPRP | -0.0914
RRIRVRPPRLPRPRPRPCDFPRP | 0.0154
RRIRQRPPRLPRPRPRPEQSPRP | 0.142
RRIRARPPRLPRPRPRPNFMPRP | 0.186

----------
- Tested on: Escherichia coli TOP10
- assay info: shrunken log2 fold change of peptide-encoding DNA abundance (4.5 h post-induction vs induction); higher = less antimicrobial activity (less host growth inhibition)
- condition details: time post-induction: 4.5 h; library: site-saturation at positions 5, 18, 19, 20
parameter: shrunken log2 fold change

RRIRVRPPRLPRPRPRPWSFPRP | -0.225
RRIRTRPPRLPRPRPRPNFLPRP | 0.998
RRIRYRPPRLPRPRPRPMCPPRP | -0.217
RRIRQRPPRLPRPRPRPDNCPRP | 0.0333
RRIRIRPPRLPRPRPRPLSFPRP | -0.687
RRIRPRPPRLPRPRPRPYVSPRP | 0.00613
RRIRLRPPRLPRPRPRPITNPRP | -0.391
RRIRCRPPRLPRPRPRPCAAPRP | 0.514
RRIRRRPPRLPRPRPRPRKSPRP | 0.339
RRIRVRPPRLPRPRPRPPGRPRP | 0.593
RRIRARPPRLPRPRPRPIWHPRP | 0.331
RRIRGRPPRLPRPRPRPICEPRP | 0.396
RRIRWRPPRLPRPRPRPAHWPRP | 0.0695
RRIRARPPRLPRPRPRPYQGPRP | -0.135
RRIRYRPPRLPRPRPRPPGTPRP | -0.146

----------
- Tested on: Escherichia coli TOP10
- assay info: shrunken log2 fold change of peptide-encoding DNA abundance (4.5 h post-induction vs induction); higher = less antimicrobial activity (less host growth inhibition)
- condition details: time post-induction: 4.5 h; library: site-saturation at positions 5, 18, 19, 20
Please enter Condition met where shrunken log2 fold change is greater than or equal to -0.03, and Condition not met where it is lower.

RRIRGRPPRLPRPRPRPLCYPRP | Condition met
RRIRWRPPRLPRPRPRPYTCPRP | Condition not met
RRIRYRPPRLPRPRPRPIKPPRP | Condition met
RRIRQRPPRLPRPRPRPNQYPRP | Condition not met
RRIRRRPPRLPRPRPRPEMNPRP | Condition met
RRIRRRPPRLPRPRPRPYGRPRP | Condition not met
RRIRTRPPRLPRPRPRPHMQPRP | Condition not met
RRIRFRPPRLPRPRPRPATTPRP | Condition met
RRIRIRPPRLPRPRPRPDEQPRP | Condition met
RRIRLRPPRLPRPRPRPAIPPRP | Condition met
RRIRWRPPRLPRPRPRPQNYPRP | Condition not met
RRIRWRPPRLPRPRPRPMWQPRP | Condition met
RRIRTRPPRLPRPRPRPMALPRP | Condition not met
RRIRMRPPRLPRPRPRPDYCPRP | Condition not met
RRIRVRPPRLPRPRPRPVIHPRP | Condition not met

----------
- Tested on: Escherichia coli TOP10;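 further: peptides expressed intracellularly from a pBAD plasmid library in pooled LB shake-flask culture, induced with 0.3% L-arabinose, DNA abundance read by NGS, three biological replicates, DESeq2 with apeglm shrinkage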
- assay info: shrunken log2 fold change of peptide-encoding DNA abundance (4.5 h post-induction vs induction); higher = less antimicrobial activity (less host growth inhibition)
- condition details: time post-induction: 4.5 h; library: site-saturation at positions 5, 18, 19, 20
Criterion: shrunken log2 fold change meeting or surpassing 0.03. Met: satisfied. Not met: not satisfied.

RRIRLRPPRLPRPRPRPDCYPRP | not satisfied
RRIRNRPPRLPRPRPRPPANPRP | satisfied
RRIRWRPPRLPRPRPRPRHAPRP | not satisfied
RRIRDRPPRLPRPRPRPGNIPRP | not satisfied
RRIRPRPPRLPRPRPRPPKFPRP | satisfied
RRIRWRPPRLPRPRPRPAMCPRP | satisfied
RRIRKRPPRLPRPRPRPKVFPRP | not satisfied
RRIRLRPPRLPRPRPRPPHVPRP | satisfied
RRIRCRPPRLPRPRPRPALEPRP | not satisfied
RRIRWRPPRLPRPRPRPVSKPRP | satisfied
RRIRYRPPRLPRPRPRPVEFPRP | not satisfied
RRIRARPPRLPRPRPRPKQKPRP | satisfied
RRIRSRPPRLPRPRPRPRTWPRP | satisfied
RRIRKRPPRLPRPRPRPMFEPRP | satisfied
RRIRLRPPRLPRPRPRPKYKPRP | not satisfied
RRIRARPPRLPRPRPRPKDCPRP | satisfied
RRIRPRPPRLPRPRPRPHMQPRP | satisfied
RRIRPRPPRLPRPRPRPRQNPRP | satisfied
RRIRPRPPRLPRPRPRPQSVPRP | not satisfied
RRIRFRPPRLPRPRPRPEMPPRP | not satisfied
RRIRSRPPRLPRPRPRPEKEPRP | not satisfied
RRIRNRPPRLPRPRPRPGWVPRP | satisfied
RRIRYRPPRLPRPRPRPRWTPRP | satisfied
RRIRKRPPRLPRPRPRPKDQPRP | satisfied
RRIRGRPPRLPRPRPRPIVPPRP | not satisfied
RRIRFRPPRLPRPRPRPGQNPRP | not satisfied
RRIRCRPPRLPRPRPRPKDMPRP | not satisfied
RRIRVRPPRLPRPRPRPGFWPRP | satisfied
RRIRVRPPRLPRPRPRPSQKPRP | not satisfied
RRIRNRPPRLPRPRPRPKICPRP | not satisfied
RRIRQRPPRLPRPRPRPVNSPRP | not satisfied
RRIRKRPPRLPRPRPRPWHIPRP | not satisfied
RRIRERPPRLPRPRPRPMCYPRP | not satisfied
RRIRLRPPRLPRPRPRPLSWPRP | not satisfied
RRIRSRPPRLPRPRPRPGRYPRP | not satisfied
RRIRPRPPRLPRPRPRPMQAPRP | not satisfied
RRIRWRPPRLPRPRPRPYDAPRP | not satisfied
RRIRERPPRLPRPRPRPAWHPRP | satisfied
RRIRYRPPRLPRPRPRPWIQPRP | not satisfied
RRIRMRPPRLPRPRPRPEHKPRP | satisfied
RRIRTRPPRLPRPRPRPFSVPRP | not satisfied
RRIRGRPPRLPRPRPRPTVCPRP | satisfied
RRIRGRPPRLPRPRPRPYFPPRP | not satisfied
RRIRYRPPRLPRPRPRPVVCPRP | not satisfied
RRIRRRPPRLPRPRPRPVIAPRP | satisfied
RRIRARPPRLPRPRPRPYTTPRP | not satisfied
RRIRSRPPRLPRPRPRPEPDPRP | satisfied
RRIRCRPPRLPRPRPRPKSDPRP | satisfied
RRIRFRPPRLPRPRPRPQWKPRP | not satisfied
RRIRHRPPRLPRPRPRPTMSPRP | not satisfied
RRIRTRPPRLPRPRPRPFCNPRP | satisfied
RRIRWRPPRLPRPRPRPSMIPRP | not satisfied
RRIRQRPPRLPRPRPRPLSWPRP | satisfied
RRIRTRPPRLPRPRPRPIGDPRP | not satisfied
RRIRNRPPRLPRPRPRPYPSPRP | satisfied
RRIRHRPPRLPRPRPRPRNQPRP | satisfied
RRIRHRPPRLPRPRPRPHQCPRP | satisfied
RRIRQRPPRLPRPRPRPVPAPRP | satisfied
RRIRHRPPRLPRPRPRPNQDPRP | not satisfied
RRIRERPPRLPRPRPRPTMWPRP | not satisfied
RRIRLRPPRLPRPRPRPCSLPRP | not satisfied
RRIRDRPPRLPRPRPRPQKEPRP | not satisfied
